pEC50 values, listed per item
Biological target: Glucagon-like peptide 1 receptor (Homo sapiens)
Assay: Agonist activity at human GLP-1R expressed in CHO cells assessed as cAMP accumulation incubated for 30 mins
Positions of bridges follow the written chain, without caps; N, C: chain ends. Non-standard residues stand in square brackets, D forms with d. Residues, ends and D or L forms follow the SMILES beside them. Bip(2'-Et-4'-OMe) = CCc1cc(OC)ccc1-c1ccc(C[C@H](N)C(=O)O)cc1; αMePhe(2-F) = C[C@](N)(Cc1ccccc1F)C(=O)O; hhPhe = N[C@@H](CCCc1ccccc1)C(=O)O; Aad = N[C@@H](CCCC(=O)O)C(=O)O; Aib = CC(C)(N)C(=O)O
In plain terms, pEC50 is the concentration in mol/L turned into minus its base-10 logarithm.

Known results for compounds:
compound: CCc1cc(OC)ccc1-c1ccc(C[C@H](NC(=O)[C@H](CC(=O)O)NC(=O)[C@H](CO)NC(=O)[C@@H](NC(=O)[C@](C)(Cc2ccccc2F)NC(=O)[C@@H]2CCSSCC[C@H](NC(=O)[C@@H](N)Cc3cnc[nH]3)C(=O)N[C@@H](CCC(=O)O)C(=O)NCC(=O)N2)[C@@H](C)O)C(=O)N[C@@H](CCCc2ccccc2)C(N)=O)cc1
parameter.measured: pEC50
result.number: 6.41
--
compound: CCc1cc(OC)ccc1-c1ccc(C[C@H](NC(=O)[C@@H]2CCCC(=O)NCCCC[C@H](NC(=O)CNC(=O)[C@H](CCC(=O)O)NC(=O)C(C)(C)NC(=O)[C@@H](N)Cc3cnc[nH]3)C(=O)N[C@@](C)(Cc3ccccc3F)C(=O)N[C@@H]([C@@H](C)O)C(=O)N[C@@H](CO)C(=O)N2)C(=O)N[C@@H](CCCc2ccccc2)C(N)=O)cc1 (H-H[Aib]EGK[αMePhe(2-F)]TS[Aad][Bip(2'-Et-4'-OMe)][hhPhe]-NH2; lactam 5-9)
parameter.measured: pEC50
result.number: 7.02
--
compound: CCc1cc(OC)ccc1-c1ccc(C[C@H](NC(=O)[C@H](CC(=O)O)NC(=O)[C@H](CO)NC(=O)[C@@H](NC(=O)[C@](C)(Cc2ccccc2F)NC(=O)[C@H]2CCSSCC[C@@H](NC(=O)[C@@H](N)Cc3cnc[nH]3)C(=O)N[C@@H](CCC(=O)O)C(=O)NCC(=O)N2)[C@@H](C)O)C(=O)N[C@@H](CCCc2ccccc2)C(N)=O)cc1
parameter.measured: pEC50
result.number: 9.14
--
compound: CCc1cc(OC)ccc1-c1ccc(C[C@H](NC(=O)[C@H](CC(=O)O)NC(=O)[C@H](CO)NC(=O)[C@@H](NC(=O)[C@](C)(Cc2ccccc2F)NC(=O)[C@@H]2CCSSCC[C@@H](NC(=O)[C@@H](N)Cc3cnc[nH]3)C(=O)N[C@@H](CCC(=O)O)C(=O)NCC(=O)N2)[C@@H](C)O)C(=O)N[C@@H](CCCc2ccccc2)C(N)=O)cc1
parameter.measured: pEC50
result.number: 6.70

Here is another compound to look at.
Exercise: // returns reported pEC50 for input `CCc1cc(OC)ccc1-c1ccc(C[C@H](NC(=O)[C@H](CC(=O)O)NC(=O)[C@H](CO)NC(=O)[C@@H](NC(=O)[C@](C)(Cc2ccccc2F)NC(=O)[C@H]2CSSCC[C@H](NC(=O)[C@@H](N)Cc3cnc[nH]3)C(=O)N[C@@H](CCC(=O)O)C(=O)NCC(=O)N2)[C@@H](C)O)C(=O)N[C@@H](CCCc2ccccc2)C(N)=O)cc1`
Solution: 6.14

----------
Positions of bridges follow the written chain, without caps; N, C: chain ends. Non-standard residues stand in square brackets, D forms with d. Residues, ends and D or L forms follow the SMILES beside them. Bip(2'-Et-4'-OMe) = CCc1cc(OC)ccc1-c1ccc(C[C@H](N)C(=O)O)cc1; αMePhe(2-F) = C[C@](N)(Cc1ccccc1F)C(=O)O; hhPhe = N[C@@H](CCCc1ccccc1)C(=O)O; Aib = CC(C)(N)C(=O)O
Measured Ki (Glucagon-like peptide 1 receptor (Homo sapiens))
Field: numeric (nM). Do not append units.

Known results for compounds:
compound: CCc1cc(OC)ccc1-c1ccc(C[C@H](NC(=O)[C@H](CC(=O)O)NC(=O)[C@H](CO)NC(=O)[C@@H](NC(=O)[C@](C)(Cc2ccccc2F)NC(=O)[C@H]2CCSSCC[C@H](NC(=O)[C@@H](N)Cc3cnc[nH]3)C(=O)N[C@@H](CCC(=O)O)C(=O)NCC(=O)N2)[C@@H](C)O)C(=O)N[C@@H](CCCc2ccccc2)C(N)=O)cc1
parameter.measured: Ki
units.label: nM
result.number: 130
//
compound: CCc1cc(OC)ccc1-c1ccc(C[C@H](NC(=O)[C@H](CC(=O)O)NC(=O)[C@H](CO)NC(=O)[C@@H](NC(=O)[C@](C)(Cc2ccccc2F)NC(=O)[C@H]2CCSSCC[C@@H](NC(=O)[C@@H](N)Cc3cnc[nH]3)C(=O)N[C@@H](CCC(=O)O)C(=O)NCC(=O)N2)[C@@H](C)O)C(=O)N[C@@H](CCCc2ccccc2)C(N)=O)cc1
parameter.measured: Ki
units.label: nM
result.number: 41

Here is another compound to look at.
Exercise: Param readout= Ki; system= Glucagon-like peptide 1 receptor (Homo sapiens); entry= CCc1cc(OC)ccc1-c1ccc(C[C@H](NC(=O)[C@@H]2CCC(=O)NCCCC[C@H](NC(=O)CNC(=O)[C@H](CCC(=O)O)NC(=O)C(C)(C)NC(=O)[C@@H](N)Cc3cnc[nH]3)C(=O)N[C@@](C)(Cc3ccccc3F)C(=O)N[C@@H]([C@@H](C)O)C(=O)N[C@@H](CO)C(=O)N2)C(=O)N[C@@H](CCCc2ccccc2)C(N)=O)cc1 (H-H[Aib]EGK[αMePhe(2-F)]TSE[Bip(2'-Et-4'-OMe)][hhPhe]-NH2; lactam 5-9) ; returns value.
Solution: 17

----------
Biological target: Glucagon-like peptide 1 receptor (Homo sapiens, UniProt P43220)
Sequence (P43220 whole entry): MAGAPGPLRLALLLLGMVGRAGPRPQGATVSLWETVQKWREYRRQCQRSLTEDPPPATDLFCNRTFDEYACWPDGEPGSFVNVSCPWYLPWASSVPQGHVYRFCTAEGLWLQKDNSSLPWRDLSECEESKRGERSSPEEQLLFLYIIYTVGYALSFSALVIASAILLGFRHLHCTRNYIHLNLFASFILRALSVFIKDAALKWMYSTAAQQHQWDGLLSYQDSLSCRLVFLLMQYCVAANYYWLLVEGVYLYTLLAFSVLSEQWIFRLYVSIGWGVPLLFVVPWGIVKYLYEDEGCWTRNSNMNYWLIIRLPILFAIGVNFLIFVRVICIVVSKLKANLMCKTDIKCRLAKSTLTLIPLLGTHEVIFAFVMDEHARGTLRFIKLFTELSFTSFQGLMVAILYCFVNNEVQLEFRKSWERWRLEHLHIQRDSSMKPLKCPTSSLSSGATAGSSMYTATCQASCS
Test: Agonist activity at human GLP-1R expressed in CHO cells assessed as cAMP accumulation incubated for 30 mins relative to GLP1
Assay type: functional, cell-based
Positions of bridges follow the written chain, without caps; N, C: chain ends. Non-standard residues stand in square brackets, D forms with d. Residues, ends and D or L forms follow the SMILES beside them. Bip(2'-Et-4'-OMe) = CCc1cc(OC)ccc1-c1ccc(C[C@H](N)C(=O)O)cc1; αMePhe(2-F) = C[C@](N)(Cc1ccccc1F)C(=O)O; hhPhe = N[C@@H](CCCc1ccccc1)C(=O)O; Aib = CC(C)(N)C(=O)O
Activity values, listed per item

compound: CCc1cc(OC)ccc1-c1ccc(C[C@H](NC(=O)[C@@H]2CCC(=O)NCCCC[C@H](NC(=O)CNC(=O)[C@H](CCC(=O)O)NC(=O)C(C)(C)NC(=O)[C@@H](N)Cc3cnc[nH]3)C(=O)N[C@@](C)(Cc3ccccc3F)C(=O)N[C@@H]([C@@H](C)O)C(=O)N[C@@H](CO)C(=O)N2)C(=O)N[C@@H](CCCc2ccccc2)C(N)=O)cc1 (H-H[Aib]EGK[αMePhe(2-F)]TSE[Bip(2'-Et-4'-OMe)][hhPhe]-NH2; lactam 5-9)
assayed.system: Glucagon-like peptide 1 receptor (Homo sapiens, UniProt P43220)
Activity: > 85%

Here is another compound to look at.
Exercise: // returns reported Activity for input `CCc1cc(OC)ccc1-c1ccc(C[C@H](NC(=O)[C@H](CC(=O)O)NC(=O)[C@H](CO)NC(=O)[C@@H](NC(=O)[C@](C)(Cc2ccccc2F)NC(=O)[C@H]2CSSCC[C@@H](NC(=O)[C@@H](N)Cc3cnc[nH]3)C(=O)N[C@@H](CCC(=O)O)C(=O)NCC(=O)N2)[C@@H](C)O)C(=O)N[C@@H](CCCc2ccccc2)C(N)=O)cc1`
Solution: > 85%
